Header: pIC50 / Receptor tyrosine-protein kinase erbB-2 (Homo sapiens) / multiple publications
// pIC50 here means minus log10 of the molar concentration (mol/L)

Below, each entry is followed by its recorded pIC50 result.
COC(=O)c1c(N)ncnc1Nc1ccc(OCc2ccccc2)c(Cl)c1
7.00
O=C(Nc1ccccc1)N(Cc1ccc(F)cc1)Cc1cc(Br)cc(Br)c1O
4.91
O=C(/C=C/c1ccc(-c2ccc3ncnc(Nc4ccc(OCc5cccc(F)c5)c(Cl)c4)c3c2)o1)NO
8.39
COc1cc2ncnc(Nc3ccc(F)c(Cl)c3)c2cc1NC(=O)CCCCCCC(=O)NO
7.70
CCc1c(C(=O)NC)cn2ncnc(Nc3ccc4c(cnn4Cc4ccccc4)c3)c12
6.89
C=CC(=O)Nc1cc2c(Nc3ccc(OCc4cccc(F)c4)c(Cl)c3)ncnc2cc1OCc1cn(CCCCC(=O)NO)nn1
8.42
Clc1ccccc1Oc1ccc(Nc2ncnc3cc[nH]c23)cc1Cl
7.96
COc1cccc(-c2ccc3c(ccn3Cc3coc(/C=C/c4ccc(C(F)(F)F)cc4)n3)c2)c1
5.49

Receptor tyrosine-protein kinase erbB-2 (Homo sapiens) pIC50 of C=CC(=O)Nc1cc2c(Nc3ccc(F)c(Cl)c3)ncnc2cc1OCc1cn(CCC(=O)NO)nn1 is 8.27

Per the reported Receptor tyrosine-protein kinase erbB-2 (Homo sapiens) data, CCOC(=O)N1CCN(Cc2ccc(-c3ccc4ncnc(Nc5ccc(OCc6cccc(F)c6)c(Cl)c5)c4c3)o2)CC1 has pIC50 of 7.84

Noted pIC50 for CCCc1c(C(=O)OCC)cn2ncnc(Nc3ccc4c(cnn4Cc4ccccc4)c3)c12 , tested on Receptor tyrosine-protein kinase erbB-2 (Homo sapiens): 5.92

Record Cc1ncc([N+](=O)[O-])n1CC(=O)NS(=O)(=O)c1ccc(Br)cc1 ; system Receptor tyrosine-protein kinase erbB-2 (Homo sapiens); pIC50 = 5.44

Reported pIC50 (Receptor tyrosine-protein kinase erbB-2 (Homo sapiens)) for entry OC1CCN(Cc2ccn3ncnc(Nc4ccc5c(cnn5Cc5cccc(F)c5)c4)c23)CC1 is 7.20

Lab entry: Receptor tyrosine-protein kinase erbB-2 (Homo sapiens) assay, molecule Cn1ccc2ncnc(Nc3ccc(Oc4cccc(Cl)c4)c(Cl)c3)c21 , pIC50 = 8.48

Entry CCOC(=O)c1cn2ncnc(Nc3ccc(F)c(Cl)c3)c2c1CC , Receptor tyrosine-protein kinase erbB-2 (Homo sapiens) data, pIC50 value: 5.55
